Assay: Aqueous solubility
Assay type: physicochemical
Conditions: water, crystalline sodium salt; read-out: aqueous solubility
Structures can show the parent of a compound that is named as a salt.
MEASUREMENT NAME: solubility

Any idea what solubility was measured for CC(C)(C)Sc1c(CC(C)(C)C(=O)O)n(Cc2ccc(Cl)cc2)c2ccc(OCc3ccc4ccccc4n3)cc12 [L-708 Na⁺ salt, sodium salt, reference compound] ?
5 to 30 µg/mL

====

Assay: Aqueous solubility
Format: physicochemical
Conditions: de-ionized water, in de-ionized water at 25°C; read-out: solubility
Structures can show the parent of a compound that is named as a salt.
MEASUREMENT NAME: solubility (mg/mL)
API: value field is a number in mg/mL; no unit string.

Find the recorded solubility belonging to CC(C)(C)Sc1c(CC(C)(C)C(=O)O)n(Cc2ccc(Cl)cc2)c2ccc(OCc3ccc4ccccc4n3)cc12 [amorphous L-708, sodium salt] and report it.
55

src = patent EP0542355A1
